# testTarget: EGFR (Homo sapiens, UniProt P00533)
# Sequence (P00533 25-1210): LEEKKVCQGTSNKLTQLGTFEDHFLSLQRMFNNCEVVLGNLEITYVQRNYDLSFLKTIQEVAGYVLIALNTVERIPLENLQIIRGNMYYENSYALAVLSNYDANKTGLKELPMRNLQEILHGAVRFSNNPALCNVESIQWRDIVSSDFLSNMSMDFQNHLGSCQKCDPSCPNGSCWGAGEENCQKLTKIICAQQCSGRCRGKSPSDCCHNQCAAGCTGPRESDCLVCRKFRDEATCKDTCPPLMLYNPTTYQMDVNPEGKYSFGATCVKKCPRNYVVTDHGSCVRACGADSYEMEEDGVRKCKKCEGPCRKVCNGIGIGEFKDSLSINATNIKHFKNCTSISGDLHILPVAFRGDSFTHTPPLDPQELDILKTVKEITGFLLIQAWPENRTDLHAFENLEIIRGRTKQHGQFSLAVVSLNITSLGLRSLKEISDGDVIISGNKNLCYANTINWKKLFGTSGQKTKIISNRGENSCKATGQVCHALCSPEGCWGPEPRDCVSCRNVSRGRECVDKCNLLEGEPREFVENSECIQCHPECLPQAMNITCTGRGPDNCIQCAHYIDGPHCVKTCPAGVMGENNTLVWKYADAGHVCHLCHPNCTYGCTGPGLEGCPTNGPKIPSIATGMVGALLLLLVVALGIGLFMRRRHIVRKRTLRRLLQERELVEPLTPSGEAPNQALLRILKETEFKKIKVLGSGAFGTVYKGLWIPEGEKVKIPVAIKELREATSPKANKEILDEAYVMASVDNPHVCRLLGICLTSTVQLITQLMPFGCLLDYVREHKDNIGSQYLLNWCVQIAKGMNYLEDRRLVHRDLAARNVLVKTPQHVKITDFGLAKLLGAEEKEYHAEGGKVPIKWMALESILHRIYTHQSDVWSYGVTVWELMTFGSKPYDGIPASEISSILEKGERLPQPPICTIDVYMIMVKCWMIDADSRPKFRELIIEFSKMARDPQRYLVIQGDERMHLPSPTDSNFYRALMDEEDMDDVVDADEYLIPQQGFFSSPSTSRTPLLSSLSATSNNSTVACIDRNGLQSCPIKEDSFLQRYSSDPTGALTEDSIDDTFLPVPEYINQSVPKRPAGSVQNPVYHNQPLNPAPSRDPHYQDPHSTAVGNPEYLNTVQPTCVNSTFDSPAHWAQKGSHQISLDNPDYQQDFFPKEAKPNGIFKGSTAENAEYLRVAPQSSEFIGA
# assayName: Biochemical EGFR assay (ELISA, A431 cell lysate)
# Set-up: Add 7 μg A431 cell lysate per well (EGFR source); endogenous in cells; host or cells: A431 cell lysate, captured on 05-101 anti-EGFR antibody
# experimentalContext: A431 cell lysate as EGFR source

compound | IC50
Cc1cc(/C=C2/C(=O)Nc3ccccc32)c(C)c2c1[nH]c1ccccc12 [VI] | > 50 µM

----------
# testTarget: human FLK-1 (Homo sapiens, UniProt P35968)
# assayName: FLK-1 receptor phosphorylation assay in cells (ELISA)
# Type: cell-based
# experimentalContext: NIH3T3 C7#3 cells, VEGF stimulation
pIC50: −log10 of the molar value.

smilesNotation | pIC50
Cc1cc(/C=C2/C(=O)Nc3ccccc32)c(C)c2c1[nH]c1ccccc12 | 5.32

----------
# testTarget: EGFR (Homo sapiens, UniProt P00533)
# assayName: EGF receptor phosphorylation assay in cells (ELISA)
# Type: cell-based
# Design: expressed in transfected cells; host or cells: NIH 3T3/C7 cell line
# experimentalContext: NIH 3T3/C7 cells, EGF stimulation

compound | IC50
Cc1cc(/C=C2/C(=O)Nc3ccccc32)c(C)c2c1[nH]c1ccccc12 [VI] | > 100 µM

----------
# Tested on: HUV-EC-C cells
# assayName: HUV-EC-C assay (3H-thymidine), aFGF
# Type: cell-based
# experimentalContext: Homo sapiens, 3H-thymidine incorporation, HUVEC
# Description: The following protocol may also be used to measure a compound's activity against PDGF-R, FGF-R or Flk-1/KDR, all of which are naturally expressed by HUV-EC cells. 1. […]
readoutType: IC50

compound | testTarget | readoutType | observedValue
Cc1cc(/C=C2/C(=O)Nc3ccccc32)c(C)c2c1[nH]c1ccccc12 [VI] | HUV-EC-C cells | IC50 | 0.63 µM

----------
# testTarget: IGF-1 receptor (Homo sapiens)
# Sequence (P08069 31-1367): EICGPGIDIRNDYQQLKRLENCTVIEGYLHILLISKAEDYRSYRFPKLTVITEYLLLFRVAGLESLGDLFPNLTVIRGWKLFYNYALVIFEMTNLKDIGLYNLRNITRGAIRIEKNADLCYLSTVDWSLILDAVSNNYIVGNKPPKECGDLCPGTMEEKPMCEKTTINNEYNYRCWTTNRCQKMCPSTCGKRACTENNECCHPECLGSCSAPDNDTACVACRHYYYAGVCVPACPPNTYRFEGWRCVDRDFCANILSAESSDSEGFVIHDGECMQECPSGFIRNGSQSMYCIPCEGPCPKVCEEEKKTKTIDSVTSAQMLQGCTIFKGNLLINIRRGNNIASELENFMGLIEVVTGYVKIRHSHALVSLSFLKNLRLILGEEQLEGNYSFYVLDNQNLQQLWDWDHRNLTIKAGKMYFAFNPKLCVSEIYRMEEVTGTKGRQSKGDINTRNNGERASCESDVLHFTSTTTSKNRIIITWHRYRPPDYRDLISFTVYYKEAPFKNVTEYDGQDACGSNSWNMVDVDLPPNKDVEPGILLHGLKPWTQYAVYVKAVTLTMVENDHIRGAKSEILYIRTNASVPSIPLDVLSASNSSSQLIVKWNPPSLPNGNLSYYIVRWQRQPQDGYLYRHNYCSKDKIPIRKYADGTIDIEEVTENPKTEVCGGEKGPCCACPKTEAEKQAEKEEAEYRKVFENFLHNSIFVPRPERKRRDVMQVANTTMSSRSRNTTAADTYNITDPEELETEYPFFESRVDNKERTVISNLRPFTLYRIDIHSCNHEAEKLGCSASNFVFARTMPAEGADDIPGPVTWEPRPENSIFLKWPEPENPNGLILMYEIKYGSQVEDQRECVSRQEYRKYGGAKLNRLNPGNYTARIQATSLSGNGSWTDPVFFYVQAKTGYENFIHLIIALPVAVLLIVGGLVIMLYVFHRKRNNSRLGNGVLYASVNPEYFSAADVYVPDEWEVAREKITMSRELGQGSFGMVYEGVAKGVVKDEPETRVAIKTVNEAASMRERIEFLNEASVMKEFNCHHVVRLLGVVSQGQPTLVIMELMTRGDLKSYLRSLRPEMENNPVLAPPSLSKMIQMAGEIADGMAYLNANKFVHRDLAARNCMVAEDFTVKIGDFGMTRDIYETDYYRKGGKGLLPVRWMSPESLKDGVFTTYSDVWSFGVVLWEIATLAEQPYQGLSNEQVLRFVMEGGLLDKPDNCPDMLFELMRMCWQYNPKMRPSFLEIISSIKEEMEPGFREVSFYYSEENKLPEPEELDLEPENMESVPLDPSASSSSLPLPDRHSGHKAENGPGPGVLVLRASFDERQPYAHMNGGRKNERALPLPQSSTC
# assayName: IGF-1 receptor phosphorylation assay in cells (ELISA)
# experimentalContext: 3T3-L1/IGF-1R cells, IGF-1 stimulation

compound | unitsOfMeasure | IC50
Cc1cc(/C=C2/C(=O)Nc3ccccc32)c(C)c2c1[nH]c1ccccc12 [VI] | µM | 8.52

----------
# testTarget: human FLK-1 (Homo sapiens, UniProt P35968)
# assayName: FLK-1 autophosphorylation assay in vitro (ELISA)
# Assay type: biochemical
# Parameters: host or cells: FLK-1/NIH cells (NIH fibroblast line); lysate captured on L4 or E38 anti-FLK-1 antibody
# experimentalContext: FLK-1 autophosphorylation in vitro, immobilized FLK-1 from FLK-1/NIH cell lysate
# From the text: The following protocol describes the ELISA procedures used to determine the FLK-1 autophosphorylation activity in vitro. The procedure also describes the protocol for the initial screening of indolinone compounds. 2. […] When the color in the positive control wells reaches an absorbance of about 0.35-0.4, read plates on Dynatech MR7000 ELISA reader. The IC50 values measured in the above assay for the compound of formula VI are depicted in Table 1: […]
# Sequence (P35968 20-1356): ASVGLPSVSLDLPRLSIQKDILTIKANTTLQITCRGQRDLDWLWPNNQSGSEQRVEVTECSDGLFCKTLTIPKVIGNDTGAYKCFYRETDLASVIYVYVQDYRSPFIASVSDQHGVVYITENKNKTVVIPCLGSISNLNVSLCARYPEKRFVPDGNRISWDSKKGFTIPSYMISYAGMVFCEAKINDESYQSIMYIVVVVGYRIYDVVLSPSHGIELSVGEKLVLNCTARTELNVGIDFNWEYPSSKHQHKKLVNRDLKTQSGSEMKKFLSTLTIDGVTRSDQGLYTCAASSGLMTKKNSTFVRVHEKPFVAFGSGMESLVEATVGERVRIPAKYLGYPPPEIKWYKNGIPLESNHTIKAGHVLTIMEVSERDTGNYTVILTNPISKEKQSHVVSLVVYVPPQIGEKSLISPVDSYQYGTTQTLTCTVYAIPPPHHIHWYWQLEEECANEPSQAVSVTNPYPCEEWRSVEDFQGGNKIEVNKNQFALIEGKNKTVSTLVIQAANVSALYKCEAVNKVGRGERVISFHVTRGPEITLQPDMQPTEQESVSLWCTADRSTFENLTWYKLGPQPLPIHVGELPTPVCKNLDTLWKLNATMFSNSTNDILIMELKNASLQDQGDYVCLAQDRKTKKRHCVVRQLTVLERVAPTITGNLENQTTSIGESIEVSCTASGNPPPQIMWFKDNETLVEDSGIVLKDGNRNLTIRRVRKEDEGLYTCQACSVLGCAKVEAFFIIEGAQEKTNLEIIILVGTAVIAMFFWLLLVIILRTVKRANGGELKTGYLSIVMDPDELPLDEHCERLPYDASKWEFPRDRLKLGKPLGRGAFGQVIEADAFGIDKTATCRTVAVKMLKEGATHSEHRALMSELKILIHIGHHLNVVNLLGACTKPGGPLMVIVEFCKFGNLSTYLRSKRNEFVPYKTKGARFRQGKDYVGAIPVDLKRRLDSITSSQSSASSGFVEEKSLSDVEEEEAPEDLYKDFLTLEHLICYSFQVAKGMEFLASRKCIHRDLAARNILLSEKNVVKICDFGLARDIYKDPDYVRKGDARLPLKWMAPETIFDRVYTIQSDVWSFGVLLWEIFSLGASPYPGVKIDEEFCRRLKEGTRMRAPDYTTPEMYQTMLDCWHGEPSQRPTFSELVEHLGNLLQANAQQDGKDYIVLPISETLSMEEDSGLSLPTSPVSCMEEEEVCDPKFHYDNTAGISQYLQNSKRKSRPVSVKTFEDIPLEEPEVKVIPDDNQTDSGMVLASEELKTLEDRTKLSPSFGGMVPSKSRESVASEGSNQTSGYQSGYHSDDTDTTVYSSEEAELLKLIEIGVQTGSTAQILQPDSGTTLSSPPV
pIC50: −log10 of the molar value.
readoutType: pIC50

compound | observedValue
Cc1cc(/C=C2/C(=O)Nc3ccccc32)c(C)c2c1[nH]c1ccccc12 [VI] | < 4.30

----------
# Tested on: 3T3EGFR
# assayName: BrdU incorporation assay, 3T3EGFR, EGF
# Format: cell-based
readoutType: IC50 (µM)

compound | unitsOfMeasure | observedValue
Cc1cc(/C=C2/C(=O)Nc3ccccc32)c(C)c2c1[nH]c1ccccc12 [VI] | µM | 7.03

----------
# testTarget: chimeric receptor containing the EGFR extracellular domain and intracellular HER2 kinase domain (Homo sapiens)
# Construct: P00533 (Epidermal growth factor receptor)
# Sequence (P04626 720-987 limits assumed, change not shown): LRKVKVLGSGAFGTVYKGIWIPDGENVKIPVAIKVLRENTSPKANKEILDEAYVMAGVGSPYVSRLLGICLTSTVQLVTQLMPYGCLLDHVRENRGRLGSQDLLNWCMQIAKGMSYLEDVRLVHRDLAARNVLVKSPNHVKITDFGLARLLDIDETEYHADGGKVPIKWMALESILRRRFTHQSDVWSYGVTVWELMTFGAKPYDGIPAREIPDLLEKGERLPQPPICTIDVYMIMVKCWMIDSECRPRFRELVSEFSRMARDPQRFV
# assayName: EGF receptor-HER2 phosphorylation assay in whole EGFR-NIH3T3 cells (ELISA)
# Type: cell-based
# experimentalContext: NIH3T3 cells with chimeric receptor, EGF stimulation
readoutType: IC50 (µM)

smilesNotation | observedValue
Cc1cc(/C=C2/C(=O)Nc3ccccc32)c(C)c2c1[nH]c1ccccc12 | 8.72

Value source: patent US6514981B1
